Collected log10 of ED30 values appear next to each entry.
# Tested on: blood pressure of the narcotized cat
# test_protocol: Lowering of the blood pressure, narcotized cat
# Assay type: in vivo
# test_settings: Felis catus, iv, 30% lowering
Units before log transform: mg/kg; reported quantity: ED30; transform: log10.

Reference set (5 entries):
Cc1ccc(N(CC2=NCCN2)c2cccc(O)c2)cc1 [Phentolamine, reference compound]: -1.00
COc1ccccc1N1CCN(CCCNc2c([N+](=O)[O-])c(=O)n(C)c(=O)n2C)CC1: -0.68
COc1ccccc1N1CCN(CCCNc2c(N)c(=O)n(C)c(=O)n2C)CC1: -1.30
COc1ccccc1N1CCN(CCCNc2c(Br)c(=O)n(C)c(=O)n2C)CC1: -0.82
COc1ccccc1N1CCN(CCCNc2cc(=O)n(C)c(=O)n2C)CC1: -0.85

log10 of ED30 for Cc1ccccc1N1CCN(CCCNc2cc(=O)n(C)c(=O)n2C)CC1 ?
-0.39

Next molecule: COc1ccccc1N1CCN(CCCOc2cc(=O)n(C)c(=O)n2C)CC1
-1.52

----------
# Test system: blood pressure of the narcotized cat
# test_protocol: Lowering of the blood pressure, narcotized cat
# Assay type: in vivo
# test_settings: Felis catus, iv, 50% lowering
assay_endpoint: ED50 (mg/kg)
Record the value in mg/kg, omitting the unit from your answer.

// returns reported ED50 for input COc1ccccc1N1CCN(CCCNc2c([N+](=O)[O-])c(=O)n(C)c(=O)n2C)CC1
1

Further, for COc1ccccc1N1CCN(CCCOc2cc(=O)n(C)c(=O)n2C)CC1 ?
0.14

Also, Cc1ccc(N(CC2=NCCN2)c2cccc(O)c2)cc1 [Phentolamine, reference compound] please.
0.7

How about this compound: COc1ccccc1N1CCN(CCCNc2c(N)c(=O)n(C)c(=O)n2C)CC1
0.15

Another compound to check: Cc1ccccc1N1CCN(CCCNc2cc(=O)n(C)c(=O)n2C)CC1
2.4

Try COc1ccccc1N1CCN(CCCNc2cc(=O)n(C)c(=O)n2C)CC1 next.
0.65

----------
# test_protocol: in vivo
# test_settings: mouse
assay_endpoint: LD50 (mg/kg)
Answer format: numeric, mg/kg implied, no suffix.

Here is how some molecules turned out for LD50.
Cn1c(NCCCN2CCN(c3ccccc3)CC2)cc(=O)n(C)c1=O: 120
Cn1c(NCCCN2CCN(c3ccc(Cl)cc3)CC2)cc(=O)n(C)c1=O: 70
Cc1ccc(N2CCN(CCCNc3cc(=O)n(C)c(=O)n3C)CC2)cc1: 200
COc1ccc(OC)c(N2CCN(CCCNc3cc(=O)n(C)c(=O)n3C)CC2)c1: 430
COc1ccccc1N1CCN(C(C)CNc2cc(=O)n(C)c(=O)n2C)CC1 (centres unmarked): 220
CCOc1ccccc1N1CCN(CCCNc2cc(=O)n(C)c(=O)n2C)CC1: 250
COc1ccccc1N1CCN(CCCNc2c(C)c(=O)n(C)c(=O)n2C)CC1: 140
Cc1ccccc1N1CCN(CCCNc2c(N=O)c(=O)n(C)c(=O)n2C)CC1: 600

Would you mind telling me what LD50 value was observed for COc1ccccc1N1CCN(CCCNc2c([N+](=O)[O-])c(=O)n(C)c(=O)n2C)CC1 ?
600

Try COc1ccccc1N1CCN(CCCNc2c(N)c(=O)n(C)c(=O)n2C)CC1 next.
500

Same lookup for CCCCc1c(NCCCN2CCN(c3ccccc3OC)CC2)n(C)c(=O)n(C)c1=O , please.
130

Then what about the molecule Cc1ccccc1N1CCN(CCCNc2cc(=O)n(C)c(=O)n2C)CC1 ?
70

// same read-out, input: COc1ccccc1N1CCN(CCCNc2cc(=O)n(C)c(=O)n2C)CC1
400

Also, COc1ccccc1N1CCN(CCCOc2cc(=O)n(C)c(=O)n2C)CC1 please.
400

Data provenance is patent US4067982A.
